Data provenance is patent US12433952B2.

# reported log10 of IC50; entries follow
- Tested on: SK-BR-3 (breast cancer)
- ASSAY_EXPLANATION: In vitro cytotoxicity of camptothecin analogues (CellTiter-Glo)
- Format: cell-based
- DETAILS: Homo sapiens, SK-BR-3, 96 h; 4 d incubation; read-out: pIC50 SKBR-3 (converted)
// do not treat as linear: log10 of IC50, unit nM

COMPOUND	log10 of IC50
CC[C@@]1(O)C(=O)OCc2c1cc1n(c2=O)Cc2c-1nc1cc(F)c(C)cc1c2CN1CCN(C)CC1 [Compound 106]	0.53

*Q* Supply log10 of IC50 value. Item: CC[C@@]1(O)C(=O)OCc2c1cc1n(c2=O)Cc2c-1nc1cc(F)c(N)cc1c2CN1CCN(S(=O)(=O)c2ccccc2)CC1 [Compound 153]
*A* -0.29

*Q* Consider the compound CC[C@@]1(O)C(=O)OCc2c1cc1n(c2=O)Cc2cc3cc(N)c(F)cc3nc2-1 [Compound 140] . State its measured log10 of IC50.
*A* -0.50

*Q* Report log10 of IC50, nothing else, for this compound: CC[C@@]1(O)C(=O)OCc2c1cc1n(c2=O)Cc2c-1nc1cc(F)c(C)cc1c2CNC(=O)NCCO [Compound 136]
*A* 0.60

*Q* Give a short answer stating reported log10 of IC50 for CC[C@@]1(O)C(=O)OCc2c1cc1n(c2=O)Cc2c-1nc1cc(F)c(N)cc1c2CN1CCOCC1 [Compound 142] .
*A* -0.20
